Measured coloration score, listed per entry for reference.
# Test system: soybean plantlets
# methodNotes: High-throughput soybean screening for herbicide tolerance (plantlets)
# Format: in vivo, soybean (A3555)
# Parameters: key: 0 for poor tolerance, high damage, low green coloration; 1 for some tolerance, average damage, moderate green coloration; 2 for good tolerance, low damage, high green coloration
# testSettings: TP32; S-3100 spray five weeks post-transformation, scored day four

>  <molecule>
H_N50: microbial HemG protoporphyrinogen oxidase, SEQ ID NO:7 (SEQ ID NO:16 lacking start methionine) (protein, listed as Shimwellia blattae) MKTLILFSTRDGQTHKIARHIAGVLEEQGKACELVDLLQPGEPDWSTVECVVLGASIRYGHFHKSFIRFVNTHAQRLNNMPGALFTVNLVARKPEKQSPQTNSYTRKFLAASPWQPQRCQVFAGALRYPRYSWYDRMMIRLIMKMAGGETDTRKEVEYTDWQSVTRFAREIAQLPGETR

>  <coloration score>
1

$$$$
>  <molecule>
H_N40: microbial HemG protoporphyrinogen oxidase, SEQ ID NO:6 (SEQ ID NO:15 lacking start methionine) (protein, listed as Pectobacterium carotovorum) MKALIVFSSRDGQTRAIASYIANTLKGTLECDVVNVLNANDIDLSQYDRVAIGASIRYGRFHPAVNQFIRKHLTSLQQLPSAFFSVNLTARKPEKRTIQTNAYTRKFLLNSPWQPDLCCVFAGALRYPRYRWFDRVMIQLIMRITGGETDSTKEIEYTDWQQVARFAQDFAQLAAKNPA

>  <coloration score>
1

$$$$
>  <molecule>
H_N90: microbial HemG protoporphyrinogen oxidase, SEQ ID NO:1 (SEQ ID NO:11 lacking start methionine; variants 18, 19) (protein, listed as Enterobacter cloacae) MKALVLYSTRDGQTHAIASYIASCMKEKAECDVIDLTHGEHVNLTQYDQVLIGASIRYGHFNAVLDKFIKRNVDQLNNMPSAFFCVNLTARKPEKRTPQTNPYVRKFLLATPWQPALCGVFAGALRYPRYRWIDKVMIQLIMRMTGGETDTSKEVEYTDWEQVKKFAEDFAKLSYKKAL

>  <coloration score>
0

$$$$

Values compiled from patent US12123009B2.
